- System: CCRF-CEM leukemia
- measurement.protocol: NCI-60 one-dose screen, 48 h (100 = growth as untreated, 0 = no growth, -100 = all killed)
- assay.context: 10 µM unless noted
About 83,000 compounds went through this panel and 20% of them were active in at least one assay; those are over-represented in the sample as a whole.
Rule: true (1) for growth not less than 10%, false (0) for anything less.

Problem: Could you please find out whether COc1ccc(-c2cc3c(C)nc(N)nc3n(C3CCC(OCCO)CC3)c2=O)cn1 (configuration not stated) has growth that meets 10% or exceeds it?
Result: true (1)

Problem: Consider next the molecule CC[C@@H]1C(=O)N(C)c2cnc(Nc3ccc(C(=O)NC4CCN(C)CC4)cc3OC)nc2N1C1CCCC1 in the same way.
Result: false (0)

Problem: Consider next the molecule C=CC(=O)N1CCC[C@H](n2c(=O)n(-c3ccc(Oc4ccccc4)cc3)c3c(N)ncnc32)C1 in the same way.
Result: true (1)

Problem: Consider next the molecule CC(=O)C1=C(C)NC(SCc2nnc(-c3ccc(C)cc3)o2)=NC1c1ccc(F)cc1 (configuration not stated) in the same way.
Result: true (1)

Problem: Consider next the molecule N#Cc1c(NC(=O)c2cccs2)[n+]([O-])c2ccc(F)cc2[n+]1[O-] in the same way.
Result: true (1)

Problem: Consider next the molecule Cc1cc(N2CCOCC2)nc(N(CCNc2ccnc3cc(Cl)ccc23)Cc2cccs2)n1 in the same way.
Result: false (0)

Problem: Consider next the molecule COC(=O)[C@H](C)NC(=O)[C@@H](OC)[C@@H]1Cc2cc3cc(OC4CC(OC5CC(O)C(O)C(C)O5)C(O)C(C)O4)c(C)c(O)c3c(O)c2C(=O)[C@H]1OC1CC(OC2CC(OC3CC(C)(O)C(O)C(C)O3)C(O)C(C)O2)C(O)C(C)O1 (some centres not stated) in the same way.
Result: true (1)

Problem: Consider next the molecule C=C1CC[C@@H]2[C@](C)(COC(C)=O)[C@H](OC(C)=O)CC[C@@]2(C)[C@@H]1C/C=C1/C(=O)OC[C@H]1OC(C)=O in the same way.
Result: false (0)

Problem: Consider next the molecule Cn1c(Nc2ccc(C(F)(F)F)cc2)nc2cc(Oc3ccnc(-c4ncc(C(F)(F)F)[nH]4)c3)ccc21 in the same way.
Result: true (1)

Problem: Consider next the molecule Cn1cnc2c(F)c(Nc3ccc(Br)cc3F)c(C(=O)NOCCO)cc21 in the same way.
Result: true (1)

Problem: Consider next the molecule CCN1CCN(c2nc(C)cc(N(CCCNc3ccnc4cc(Cl)ccc34)Cc3ccc4c(c3)OCO4)n2)CC1 in the same way.
Result: false (0)

Problem: Consider next the molecule C=CCN(/C=C1/C(=O)O[C@H](COC)[C@@]2(C)C1=C(O)C(=O)C1=C2[C@H](OC(C)=O)C[C@]2(C)C(=O)CC[C@@H]12)CC=C in the same way.
Result: true (1)

Problem: Consider next the molecule COc1ccc2c(CCCCC(c3ccccc3)c3ccccc3)c3[n+](cc2c1OC)CCc1cc2c(cc1-3)OCO2 in the same way.
Result: false (0)

Problem: Consider next the molecule CSC1=C(N)C(=O)c2[nH]cc(CO)c2C1=N in the same way.
Result: false (0)

Problem: Consider next the molecule CNC(=O)c1cc(Oc2cccc3nc(Nc4ccc(Cl)c(F)c4)ccc23)ccn1 in the same way.
Result: true (1)

Problem: Consider next the molecule O=S1(=O)OC(c2cc(Cl)c(O)c(Br)c2)(c2cc(Cl)c(O)c(Br)c2)c2ccccc21 in the same way.
Result: true (1)

###

- System: PC-3 prostate
- measurement.protocol: NCI-60 one-dose screen, 48 h (100 = growth as untreated, 0 = no growth, -100 = all killed)
- assay.context: 10 µM unless noted
This is part of a sample that, as a whole, favours compounds with a hit. Of some 83,000 tested, about 20% had one in any assay.
Exercise: for every item that follows, state its recorded growth.
Answer in %, number only, no unit symbol.

Problem: Which measured growth value corresponds to COc1cc(C(=O)NNC(=O)c2ccc(NC(=O)CCl)cc2)cc(OC)c1OC ?
Result: 66.1

Problem: Consider next the compound COc1cc2ncnc(Nc3ccc(O)cc3)c2cc1OC in the same way.
Result: 91

Problem: Consider next the compound ClCc1ccc(-c2ccc(Cn3cnc4c(Cl)nc(Cl)nc43)cc2)cc1 in the same way.
Result: -95.6

Problem: Consider next the compound O=C(/C=C/c1ccc2c(c1)OCO2)c1c(O)c2ccccc2oc1=O in the same way.
Result: 95.9

Problem: Consider next the compound CCc1nc2cc(/C=C/C(=O)NO)ccc2c(=O)n1CCc1ccc(OC)cc1 in the same way.
Result: 22.9

Problem: Consider next the compound CCc1ccc(C2=C(O)C(=O)C(c3ccc(CC)cc3)=C(O)C2=O)cc1 in the same way.
Result: 6.64

Problem: Consider next the compound CCCCN1CCCC[C@@H]1C(=O)N[C@H](C(=O)N(C)[C@H](CCc1nc(C(=O)N[C@@H](Cc2ccccc2)C[C@H](C)C(=O)OC)cs1)C(C)C)C(C)C in the same way.
Result: 35

Problem: Consider next the compound CNC(=O)c1c(C)oc2cc(Oc3ncnc4cc(OC)c(OC)cc34)ccc12 in the same way.
Result: 84.9

Problem: Consider next the compound COCC(=O)NC/C=C/c1ccc2ncnc(Nc3ccc(Oc4ccc(C)nc4)c(C)c3)c2c1 in the same way.
Result: 74.1

###

- Test system: MALME-3M melanoma
- measurement.protocol: NCI-60 one-dose screen, 48 h
- assay.context: 10 µM unless noted
About 83,000 compounds went through this panel and 20% of them were active in at least one assay; those are over-represented in the sample as a whole. Activity calls are given as the source filed them. The calls were made as follows: active = growth percent below 10; inactive = the rest.
Thanks in advance; please answer with one of these: active, inactive

Problem: Hi team, can someone confirm the assay call for CNc1ncc2cc(-c3cc(NC(=O)NCCC(C)(C)C)c(F)cc3C)c(C)nc2n1 ?
Result: active

Problem: Consider next the compound COC(=O)c1[nH]cnc1/N=N/N(C)CCO in the same way.
Result: inactive

Problem: Consider next the compound CC(=Nc1ccccc1)C1=C(O)C(Cc2ccccc2)NC1=O (stereo not drawn) in the same way.
Result: inactive

Problem: Consider next the compound Cc1cc(C)n(CC(=O)Nc2ccc(-c3nc4ccccc4s3)cc2)n1 in the same way.
Result: inactive

Problem: Consider next the compound COc1cc2ncnc(Nc3ccc(F)c(Cl)c3)c2cc1NC(=O)/C=C/CN1CCCCC1 in the same way.
Result: active

Problem: Consider next the compound Cc1ccc(N)cc1CN1C(=O)c2ccccc2C1=O in the same way.
Result: inactive

Problem: Consider next the compound COC(=O)c1ccc2c(C(=Nc3ccc(N(C)C(=O)CN4CCN(C)CC4)cc3)c3ccccc3)c(O)[nH]c2c1 in the same way.
Result: inactive

Problem: Consider next the compound CC[C@H](Nc1ncnc2nc[nH]c12)c1nc2cccc(F)c2c(=O)n1-c1ccccc1 in the same way.
Result: inactive

Problem: Consider next the compound CCN1CCN(c2cc(C)nc(N(CCCNc3ccnc4cc(Cl)ccc34)Cc3cccs3)n2)CC1 in the same way.
Result: active

Problem: Consider next the compound Cc1c(N)ccc(-c2ccc(N)c(C)c2S(=O)(=O)O)c1S(=O)(=O)O in the same way.
Result: inactive

Problem: Consider next the compound CNC(=O)CN1CCC(Oc2cc3c(Nc4cccc(Cl)c4F)ncnc3cc2OC)CC1 in the same way.
Result: inactive

Problem: Consider next the compound Cc1[nH]c(/C=C2\C(=O)Nc3ccc(F)cc32)c(C)c1C(=O)NC[C@H](O)CN1CCOCC1 in the same way.
Result: active

Problem: Consider next the compound CNC(=O)c1cc(Oc2ccc3nc(NC(=O)Nc4ccc(Cl)c(C(F)(F)F)c4)sc3c2)ccn1 in the same way.
Result: active

Problem: Consider next the compound CN1CCN(c2nc(NCCNc3ccnc4cc(Cl)ccc34)c3ccccc3n2)CC1 in the same way.
Result: active

Problem: Consider next the compound CN(C)CCn1c(=O)c2c3cc4c(cc3n(CCN(C)C)c2c2ccc(Cl)cc21)OCO4 in the same way.
Result: inactive

Problem: Consider next the compound FC(F)(F)c1ccc(CNc2ccc(Cc3c[nH]c4ncc(Cl)cc34)cn2)cn1 in the same way.
Result: inactive

Problem: Consider next the compound O=C(c1ccc(F)c(F)c1Nc1ccc(I)cc1F)N1CC(O)([C@@H]2CCCCN2)C1 in the same way.
Result: active

Problem: Consider next the compound COc1ccc(S(=O)(=O)N(C(C)=O)c2ccccc2/C=C/c2cc[n+]([O-])cc2)cc1 in the same way.
Result: inactive
